Assay: Competitive inhibition of Penicillium fellutanum exo-beta-galactofuranosidase assessed as 4-Nitrophenyl beta-D-galactofuranoside conversion to 4-nitrophenol after 1.5 hrs by Lineweaver-Burk plot analysis
measured property: Ki (µM)

a. O=C1O[C@@H]([C@H](O)CO)[C@H](O)[C@H]1O
b. CO[C@@H]1O[C@@H]([C@H](O)CS[C@@H]2O[C@@H]([C@H](O)CO)[C@H](O)[C@H]2O)[C@H](O)[C@H]1O
Problem: Looking at a and b , which one comes out lower in Ki terms? I would appreciate it if you answered with the label of your choice.
Solution: a

----------
Assay: Inhibition of Penicillium fellutanum exo-beta-galactofuranosidase assessed as 4-Nitrophenyl beta-D-galactofuranoside conversion to 4-nitrophenol after 1.5 hrs by spectrophotometric analysis
measured property: IC50 (µM)

P. Nc1ccc(S[C@@H]2O[C@@H]([C@H](O)CO)[C@H](O)[C@H]2O)cc1
Q. O=[N+]([O-])c1ccc(S[C@@H]2O[C@@H]([C@H](O)CO)[C@H](O)[C@H]2O)cc1
Problem: Please compare: P and Q . Report which one has the smaller IC50 value. Write down the label of the entry you select.
Solution: P

Values compiled from ChEMBL document CHEMBL2384979.
